Below, each entry is listed alongside its reported diastolic BP.
Test system: hypertensive patients
assay_explanation: Special investigation of combined use of cilnidipine and ARB: changes in systolic and diastolic blood pressure
Format: in vivo, human
recorded_conditions: named ARB + cilnidipine only; 12 weeks after starting the combined administration
Protocol: A special investigation was conducted in various medical centers, compiled, and analyzed to evaluate the safety and availability of the combined use of cilnidipine and at least one angiotensin II receptor blocker. The subjects of the investigation were hypertensive patients which were adapted to cilnidipine. Combined administration of cilnidipine and ARB was started for the treatment of hypertension in these patients. A prospective continuous investigation method was conducted. […]

# smiles_data, target_under_test, diastolic BP
rows = [
    ("CCCc1nc2c(C)cc(-c3nc4ccccc4n3C)cc2n1Cc1ccc(-c2ccccc2C(=O)O)cc1", "hypertensive patients", "80.70 ± 11.71 mmHg"),
    ("CCOc1nc2cccc(C(=O)O)c2n1Cc1ccc(-c2ccccc2-c2nnn[nH]2)cc1", "hypertensive patients", "79.81 ± 12.72 mmHg"),
    ("CCCCC(=O)N(Cc1ccc(-c2ccccc2-c2nnn[nH]2)cc1)[C@H](C(=O)O)C(C)C", "hypertensive patients", "79.31 ± 10.42 mmHg"),
    ("CCCCc1nc(Cl)c(CO)n1Cc1ccc(-c2ccccc2-c2nn[nH]n2)cc1", "hypertensive patients", "79.45 ± 9.20 mmHg"),
]
